target_or_test_system: Genome polyprotein (dengue virus type 2, UniProt P29990)
Sequence (P29990 1346-1475 limits assumed): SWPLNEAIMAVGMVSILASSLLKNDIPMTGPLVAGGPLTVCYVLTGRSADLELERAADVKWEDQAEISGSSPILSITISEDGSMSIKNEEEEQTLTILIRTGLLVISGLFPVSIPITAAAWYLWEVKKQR
Sequence (P29990 1476-2093 limits assumed): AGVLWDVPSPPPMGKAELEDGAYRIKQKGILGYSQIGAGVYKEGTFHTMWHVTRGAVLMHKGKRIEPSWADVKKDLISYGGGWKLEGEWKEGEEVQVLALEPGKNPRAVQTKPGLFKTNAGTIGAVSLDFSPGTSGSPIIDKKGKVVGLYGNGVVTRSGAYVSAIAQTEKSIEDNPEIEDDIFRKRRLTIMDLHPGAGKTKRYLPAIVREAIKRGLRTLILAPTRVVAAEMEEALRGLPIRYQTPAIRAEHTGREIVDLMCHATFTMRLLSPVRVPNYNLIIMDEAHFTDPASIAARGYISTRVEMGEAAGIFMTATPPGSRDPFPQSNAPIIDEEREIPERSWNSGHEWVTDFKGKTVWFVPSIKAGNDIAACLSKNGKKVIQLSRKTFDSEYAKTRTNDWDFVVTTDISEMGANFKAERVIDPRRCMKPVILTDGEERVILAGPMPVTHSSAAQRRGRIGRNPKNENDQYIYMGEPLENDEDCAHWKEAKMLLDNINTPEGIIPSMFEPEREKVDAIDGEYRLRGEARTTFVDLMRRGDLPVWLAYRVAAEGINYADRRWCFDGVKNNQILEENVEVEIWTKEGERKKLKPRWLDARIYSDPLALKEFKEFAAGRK
Assay type: functional, Thailand/16681/1984
pIC50: −log10 of the molar value.
Property: pIC50; scope: individual molecules
property_label: pIC50

>>> value_reported("Cc1cc(OCc2ccccc2)ccc1NS(=O)(=O)c1ccc(Cl)cc1C(=O)O")
4.57
>>> value_reported("Cc1cc(C(=O)Nc2cccc(CN)c2)n2nc(C(F)(F)F)cc2n1")
4.06
>>> value_reported("CCn1c(=O)c(N2CC[C@H](CO)C2)nc2ccc(C(=O)NCc3ccccc3)cc21")
4.02
>>> value_reported("O=C(NCc1cocn1)c1cc(Cl)ccc1NS(=O)(=O)c1ccc(Oc2ccccc2Cl)cc1")
4.61

----------
Property: pIC50; scope: individual molecules
target_or_test_system: Genome polyprotein (dengue virus type 2)
Type: functional, Thailand/16681/1984
pIC50: −log10 of the molar value.
property_label: pIC50

>>> value_reported("O=C1COc2c(cccc2N2CCN(Cc3c[nH]c4ccccc34)CC2)N1")
"< 4.00"
>>> value_reported("Cc1ccc(NC(=O)OC(C)(C)C)c2[nH]cc(CN3CCC(c4cscn4)CC3)c12")
"< 4.00"
>>> value_reported("NCc1cccc(NC(=O)[C@@H](NS(=O)(=O)CCc2ccccc2)c2ccc(OCc3ccccc3)cc2)c1")
4.14
>>> value_reported("NCc1cccc(NC(=O)c2cc(Cl)cc3c2CCC3)c1")
"< 4.00"
>>> value_reported("O=C(Nc1cc(-c2cccnc2)ccn1)c1cc2n(n1)CCC2")
"< 4.00"
>>> value_reported("NCCCn1c(C2CC2)cc(C(=O)Nc2cc([C@H]3CCOC3)ccn2)c1C1CC1")
"< 4.00"
>>> value_reported("O=C(NCCc1nc2ccccc2[nH]1)c1cc2ccc(F)cc2s1")
"< 4.00"
>>> value_reported("O=C(Nc1cc([C@H]2CCOC2)ccn1)c1ccc2ncsc2c1")
"< 4.00"
>>> value_reported("CN(C)C(=O)[C@@H](NC(=O)OCc1ccccc1)c1ccc(OCc2ccccc2)cc1")
"< 4.00"
>>> value_reported("C[C@@H](N)c1cc(Cl)cc(C(=O)Nc2cccc(CN)c2)c1")
"< 4.00"
>>> value_reported("O=C(Nc1cc(Cl)cc(C(=O)Nc2ccc(N3CCCNCC3)cc2)c1)OCc1ccccc1")
4.56
>>> value_reported("O=C(Nc1ccc2c(c1)CNC2)c1cc(C(F)(F)F)c2cn[nH]c2n1")
"< 4.00"
>>> value_reported("CCn1c(=O)c(N2CCCC[C@H](N3CCCC3)C2)nc2ccccc21")
"< 4.00"
>>> value_reported("O=C(Nc1ccc2c(c1)CNC2)c1cc(Cl)cc2nn(C3CCOCC3)cc12")
4.04
>>> value_reported("O=C(Nc1ccc2c(c1)CNC2)c1cccc2[nH]c(=O)[nH]c12")
"< 4.00"
>>> value_reported("C[C@](C#N)(Nc1ccc2c(c1)CNC2)c1cccc(Cl)c1")
"< 4.00"
>>> value_reported("COc1ccc(-c2nc3c(C(=O)Nc4ccc5c(c4)CNC5)cc(F)cc3[nH]2)cc1")
"< 4.00"
>>> value_reported("O=C(Nc1cc(Cl)cc(C(=O)Nc2cccc3c2OC[C@H](C(=O)O)C3)c1)OCc1ccccc1")
4.30
>>> value_reported("O=C1Cc2c(cccc2C(=O)Nc2ccc3c(c2)C(=O)OC3)N1")
"< 4.00"
>>> value_reported("NCc1cccc(NC(=O)c2cccn3cc(CN4CCCC4)nc23)c1")
"< 4.00"
>>> value_reported("CCN1CC[C@H](COc2cccc([C@H](NC(=O)OCc3ccccc3)C(=O)Nc3cccc(CN)c3)c2)C1")
"< 4.00"

----------
Property: IC50; scope: individual molecules
target_or_test_system: Genome polyprotein (dengue virus type 2)
Type: functional, Thailand/16681/1984
property_label: IC50

>>> value_reported("CC(C)NC(=O)[C@H](Nc1ccc2c(c1)C(=O)OC2)c1cc(Cl)cc2[nH]ncc12")
"> 99.5 µM"
>>> value_reported("CCCc1sc(C(=O)Nc2ccc3c(c2)CNC3)cc1CC")
"> 99.5 µM"
>>> value_reported("COc1ccc(OC)c([C@H]2CCCN2C(=O)Nc2ccc3c(c2)CNC3)c1")
"> 99.5 µM"
>>> value_reported("O=C(NCc1cc(Cl)ccc1NS(=O)(=O)c1ccc(Oc2ccccc2Cl)cc1)C1CC1")
"> 99.5 µM"
>>> value_reported("Cc1cc(C(=O)Nc2cccc(CN)c2)c2c(C)nn(CC(=O)NC(C)C)c2n1")
"> 99.5 µM"
>>> value_reported("Cc1[nH]c2ccc(Cl)cc2c1Cc1ccc(-c2nnn[nH]2)cc1")
"42.6 µM"
>>> value_reported("O=C(Nc1ccc2c(c1)CNC2)c1nc(C(F)(F)F)cs1")
"> 99.5 µM"
>>> value_reported("NCCCc1ccc(C(=O)N2CC(c3cccc(Br)c3)C2)cc1")
"> 99.5 µM"
>>> value_reported("O=C1NS(=O)(=O)c2ccc(NC(=O)c3cc(Cl)cc4[nH]ncc34)cc21")
"> 99.5 µM"
>>> value_reported("N#Cc1c(C(F)F)cccc1N1CCC(n2ncc(N)c2C(F)(F)F)CC1")
"> 99.5 µM"
>>> value_reported("O=C(Nc1cc(Cl)cc(-c2cccc3c(C(=O)O)cccc23)c1)OCc1ccccc1")
"9.78 µM"
>>> value_reported("C[C@H]1CN(C)C[C@@H](C(=O)Nc2cccc(CN)c2)O1")
"> 99.5 µM"
>>> value_reported("N[C@H]1Cc2ccc(NC(=O)c3cc(Cl)cc4[nH]ncc34)cc2C1")
"> 99.5 µM"
>>> value_reported("O=C(O)c1ccc(F)c(F)c1NS(=O)(=O)c1ccc(Oc2ccccc2Cl)cc1")
"31.1 µM"
>>> value_reported("O=C(O)c1cc2cc(-c3cc(Cl)cc4c3CCNC4=O)ccc2[nH]1")
"> 99.5 µM"
>>> value_reported("CCCCCN(C)C(=O)c1cc(Cl)ccc1NS(=O)(=O)c1ccc(Oc2ccccc2Cl)cc1")
"17.8 µM"
>>> value_reported("O=C(O)c1c(NS(=O)(=O)c2ccc(Oc3ccccc3Cl)cc2)ccc(Cl)c1F")
"18.1 µM"
>>> value_reported("C=C1C[C@H](c2cc(Cl)cc(NC(=O)OCc3ccccc3)c2)[C@@H](c2cccc(-c3nn[nH]n3)c2)C1")
"6.29 µM"
>>> value_reported("N[C@H](CO)c1cccc(NC(=O)c2cc(Cl)cc(NC(=O)OCc3ccccc3)c2)c1")
"> 99.5 µM"
>>> value_reported("O=C(Nc1ccc2c(c1)CNC2)c1cc(F)cc(-c2cnc3n2CCC3)c1")
"> 99.5 µM"
>>> value_reported("CN(C(=O)c1ccc2c(c1)[C@H](CN)CCC2)C1CCN(CC(F)F)CC1")
"> 99.5 µM"

----------
target_or_test_system: Genome polyprotein (dengue virus type 2, UniProt P29990)
Format: functional, Thailand/16681/1984
pIC50: −log10 of the molar value.
property_label: pIC50

>>> value_reported("CN(C)Cc1cccc(NC(=O)[C@H](NC(=O)OCc2ccccc2)c2ccc(OCc3ccccc3)cc2)c1")
"< 4.00"
>>> value_reported("C[C@@H](N)c1ccc(NC(=O)c2cc(Cl)cc(NC(=O)OCc3ccccc3)c2)cc1")
4.32
>>> value_reported("C=C(C)c1cccc([C@@H](NC(=O)OCc2ccccc2)C(=O)Nc2cccc(CN)c2)c1")
4.52
>>> value_reported("O=C(NCC(F)F)[C@H](Nc1ccc2c(c1)CNC2)c1cc(Cl)ccc1Cl")
"< 4.00"
>>> value_reported("COc1ncccc1-c1cccc([C@H](NC(=O)OCc2ccccc2)C(=O)Nc2cccc(CN)c2)c1")
"< 4.00"
>>> value_reported("O=C(Nc1ccc2c(c1)CN(C(=O)C(F)(F)F)C2)c1cc(Cl)cc2[nH]ncc12")
"< 4.00"
>>> value_reported("O=C1Cc2c(cccc2C(=O)N[C@H]2C[C@H](OC(F)F)C2)N1")
"< 4.00"
>>> value_reported("COC1(C(=O)N[C@H](CC(=O)Nc2cccc(CN)c2)c2ccc(OCc3ccccc3)c(Br)c2)CC1")
"< 4.00"
>>> value_reported("Cc1onc(C(=O)Nc2cccc(CN)c2)c1CN1CCCC1")
"< 4.00"

----------
target_or_test_system: Genome polyprotein (dengue virus type 2, UniProt P29990)
Assay type: functional, Thailand/16681/1984
pIC50: −log10 of the molar value.
property_label: pIC50

>>> value_reported("O=C(O)c1nccn2ncc(Cc3c[nH]c4ccc(Cl)cc34)c12")
"< 4.00"
>>> value_reported("COC(=O)c1cc(C(=O)Nc2ccc3c(c2)CNC3)cc2[nH]ccc12")
"< 4.00"
>>> value_reported("CC(C)(C)NS(=O)(=O)c1cccc(C(=O)Nc2cccc(CN)c2)c1")
"< 4.00"
>>> value_reported("CC(C)c1nccn1C[C@H]1CCCN1C(=O)Nc1ccc2c(c1)CNC2")
"< 4.00"
>>> value_reported("FC(F)(F)Oc1cc(Cl)cc2c(Cc3ccc(-c4nnn[nH]4)cc3)c[nH]c12")
5.11
